System: MCF7
test: Cytotoxicity against vinblastine-reasistant human MCF7 cells after 72 hrs by SRB assay
Type: functional, cell-based
experimental.context: MCF7, 72 h

>  <compound>
CCC[C@H]1CCCCCCCCCC(=O)O[C@H]2[C@H](O[C@H]3[C@H](OC[C@H]4O[C@@H](O[C@H]5[C@H](O1)O[C@H](C)[C@@H](O)[C@@H]5O)[C@H](O[C@@H]1O[C@@H](C)[C@H](OC(C)=O)[C@@H](O)[C@H]1O)[C@@H](O)[C@@H]4O)O[C@H](C)[C@@H](O)[C@@H]3O)O[C@@H](C)[C@H](OC(=O)[C@H](C)[C@@H](C)O)[C@H]2O [ALBINOSIDE I]

>  <measured.target>
MCF7

>  <IC50>
> 20 µg/mL

$$$$
>  <compound>
C/C=C(\C)C(=O)O[C@H]1[C@H](O[C@H]2[C@@H]3O[C@H]4[C@H](O[C@@H](CCCCC)CCCCCCCCCC(=O)O[C@H]2[C@H](O)[C@@H](CO[C@@H]2O[C@H](C)[C@@H](O)[C@H](OC(=O)/C(C)=C/C)[C@H]2O[C@@H]2O[C@@H](C)[C@H](O)[C@@H](O)[C@H]2O)O3)O[C@H](C)[C@@H](O)[C@@H]4O)O[C@@H](C)[C@H](O)[C@H]1O [ALBINOSIDE III]

>  <measured.target>
MCF7

>  <IC50>
> 20 µg/mL

$$$$
>  <compound>
C/C=C(\C)C(=O)O[C@H]1[C@@H]2O[C@H]3[C@H](O[C@@H](CCC)CCCCCCCCCC(=O)O[C@@H]4[C@@H](O)[C@H](C)O[C@@H](O[C@@H]5[C@@H](O[C@@H]6O[C@@H](C)[C@H](O)[C@@H](O)[C@H]6O)[C@H](O[C@H]([C@H]1O)[C@H](C)O2)O[C@H](C)[C@H]5OC(=O)/C(C)=C/C)[C@@H]4O)O[C@H](C)[C@@H](O)[C@@H]3O [ALBINOSIDE II]

>  <measured.target>
MCF7

>  <IC50>
> 20 µg/mL

$$$$
>  <compound>
CC[C@]1(O)C[C@@H]2CN(CCc3c([nH]c4ccccc34)[C@@](C(=O)OC)(c3cc4c(cc3OC)N(C)[C@H]3[C@@](O)(C(=O)OC)[C@H](OC(C)=O)[C@]5(CC)C=CCN6CC[C@]43[C@@H]65)C2)C1

>  <measured.target>
MCF7

>  <IC50>
1.37 µg/mL

$$$$

====

Test system: MCF7
test: Cytotoxicity against drug-sensitive human MCF7 cells after 72 hrs by SRB assay
Type: functional, cell-based
experimental.context: MCF7, 72 h

>  <compound>
CC[C@]1(O)C[C@@H]2CN(CCc3c([nH]c4ccccc34)[C@@](C(=O)OC)(c3cc4c(cc3OC)N(C)[C@H]3[C@@](O)(C(=O)OC)[C@H](OC(C)=O)[C@]5(CC)C=CCN6CC[C@]43[C@@H]65)C2)C1

>  <IC50>
0.047 µg/mL

$$$$
>  <compound>
C/C=C(\C)C(=O)O[C@H]1[C@H](O[C@H]2[C@@H]3O[C@H]4[C@H](O[C@@H](CCCCC)CCCCCCCCCC(=O)O[C@H]2[C@H](O)[C@@H](CO[C@@H]2O[C@H](C)[C@@H](O)[C@H](OC(=O)/C(C)=C/C)[C@H]2O[C@@H]2O[C@@H](C)[C@H](O)[C@@H](O)[C@H]2O)O3)O[C@H](C)[C@@H](O)[C@@H]4O)O[C@@H](C)[C@H](O)[C@H]1O [ALBINOSIDE III]

>  <IC50>
> 20 µg/mL

$$$$
>  <compound>
C/C=C(\C)C(=O)O[C@H]1[C@@H]2O[C@H]3[C@H](O[C@@H](CCC)CCCCCCCCCC(=O)O[C@@H]4[C@@H](O)[C@H](C)O[C@@H](O[C@@H]5[C@@H](O[C@@H]6O[C@@H](C)[C@H](O)[C@@H](O)[C@H]6O)[C@H](O[C@H]([C@H]1O)[C@H](C)O2)O[C@H](C)[C@H]5OC(=O)/C(C)=C/C)[C@@H]4O)O[C@H](C)[C@@H](O)[C@@H]3O [ALBINOSIDE II]

>  <IC50>
> 20 µg/mL

$$$$
>  <compound>
CCC[C@H]1CCCCCCCCCC(=O)O[C@H]2[C@H](O[C@H]3[C@H](OC[C@H]4O[C@@H](O[C@H]5[C@H](O1)O[C@H](C)[C@@H](O)[C@@H]5O)[C@H](O[C@@H]1O[C@@H](C)[C@H](OC(C)=O)[C@@H](O)[C@H]1O)[C@@H](O)[C@@H]4O)O[C@H](C)[C@@H](O)[C@@H]3O)O[C@@H](C)[C@H](OC(=O)[C@H](C)[C@@H](C)O)[C@H]2O [ALBINOSIDE I]

>  <IC50>
> 20 µg/mL

$$$$
